The molecules listed here are annotated with their pEC50.
target_or_system: full-length hSIRT1 E230A (Homo sapiens, UniProt Q96EB6, E230A)
Construct: His6 (C)
Sequence (Q96EB6 1-747 E230A): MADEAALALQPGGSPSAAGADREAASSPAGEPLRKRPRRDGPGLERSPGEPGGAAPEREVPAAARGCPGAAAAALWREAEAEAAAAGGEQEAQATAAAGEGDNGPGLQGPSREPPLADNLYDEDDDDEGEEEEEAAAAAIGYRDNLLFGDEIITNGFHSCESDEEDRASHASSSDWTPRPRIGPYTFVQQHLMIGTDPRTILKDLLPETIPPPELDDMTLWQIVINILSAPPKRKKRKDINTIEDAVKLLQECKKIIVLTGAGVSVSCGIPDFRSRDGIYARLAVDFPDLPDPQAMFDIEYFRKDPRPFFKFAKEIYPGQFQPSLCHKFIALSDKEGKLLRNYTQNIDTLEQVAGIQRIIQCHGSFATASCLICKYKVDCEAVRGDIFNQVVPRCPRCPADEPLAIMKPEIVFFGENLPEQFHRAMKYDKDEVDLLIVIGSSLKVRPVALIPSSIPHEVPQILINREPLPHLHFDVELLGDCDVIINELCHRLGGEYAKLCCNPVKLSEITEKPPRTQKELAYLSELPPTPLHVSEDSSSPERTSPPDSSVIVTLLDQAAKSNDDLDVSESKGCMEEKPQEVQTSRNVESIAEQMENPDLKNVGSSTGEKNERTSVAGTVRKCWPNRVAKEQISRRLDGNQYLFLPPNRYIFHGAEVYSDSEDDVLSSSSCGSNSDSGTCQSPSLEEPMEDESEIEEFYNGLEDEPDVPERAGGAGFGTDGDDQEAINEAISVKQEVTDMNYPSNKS
assay_comment: SIRT1 activation dose-response, OAcADPr assay with Ac-p53(W5) substrate
condition_details: hSIRT1 E230A; activation dose-response, Ac-p53(W5) substrate
A value of pEC50 is the negative decimal logarithm of a concentration given in moles per litre.

1) Cc1cnc2c(NC(=O)N3c4nc(-c5cccc(C(F)(F)F)c5)ccc4N4CC[C@H]3C4)cccc2n1
6.28

# input for lookup
input: GET /values?readout=pEC50&system=full-length hSIRT1 E230A (Homo sapiens, UniProt Q96EB6, E230A)&item= `O=C(Nc1ccccn1)N1c2nc(-c3cccc(C(F)(F)F)c3)ccc2N2CC[C@H]1C2`
output: 5.58

---

target_or_system: SIRT1 (Homo sapiens)
assay_comment: Trp mass spectrometry assay (SIRT1 activation)
Type: biochemical
condition_details: Trp mass spectrometry assay; EC1.5 = concentration giving 150% activation of SIRT1
readout_label: Tryp AVG EC1.5 (μM)

Known Tryp AVG EC1.5 (μM) results, listed for orientation:
1. C#CCNc1nccc(NC(=O)N2c3nc(-c4ccc(C5(C(F)(F)F)N=N5)cc4)ccc3N3CC[C@H]2C3)n1 [Example 805]
B (EC1.5 1-25 μM)
2. NCc1cnnn1-c1cccc(NC(=O)N2c3nc(-c4cccc(C(F)(F)F)c4)ccc3N3CC[C@H]2C3)c1 [Example 640]
A (EC1.5<1 μM)
3. COc1cc(NC(=O)N2c3nc(-c4cccc(Cl)c4)ccc3N3C[C@@H](O)[C@H]2C3)nc(OC)n1 [Example 680]
B (EC1.5 1-25 μM)
4. C#CCOc1cccc(NC(=O)N2c3nc(-c4ccc(C5(C(F)(F)F)N=N5)cc4)ccc3N3CC[C@H]2C3)c1 [Example 802]
B (EC1.5 1-25 μM)
5. O=C(Nc1cccc(CN2CCOCC2)c1)N1c2nc(-c3cccc(C(F)(F)F)c3)ccc2N2CC[C@H]1C2 [Example 629]
A (EC1.5<1 μM)

input: Item C#Cc1ccc(NC(=O)N2c3nc(-c4cccc(C5(C(F)(F)F)N=N5)c4)ccc3N3CC[C@H]2C3)nc1 [Example 803] has what recorded Tryp AVG EC1.5 (μM)?
output: A (EC1.5<1 μM)

input: Any idea what Tryp AVG EC1.5 (μM) was measured for CC(C)(C)OC(=O)NCc1ccc(NC(=O)N2c3nc(-c4cccc(C(F)(F)F)c4)ccc3N3CC[C@H]2C3)cc1 [Example 793] ?
output: B (EC1.5 1-25 μM)
